Sequence of the target: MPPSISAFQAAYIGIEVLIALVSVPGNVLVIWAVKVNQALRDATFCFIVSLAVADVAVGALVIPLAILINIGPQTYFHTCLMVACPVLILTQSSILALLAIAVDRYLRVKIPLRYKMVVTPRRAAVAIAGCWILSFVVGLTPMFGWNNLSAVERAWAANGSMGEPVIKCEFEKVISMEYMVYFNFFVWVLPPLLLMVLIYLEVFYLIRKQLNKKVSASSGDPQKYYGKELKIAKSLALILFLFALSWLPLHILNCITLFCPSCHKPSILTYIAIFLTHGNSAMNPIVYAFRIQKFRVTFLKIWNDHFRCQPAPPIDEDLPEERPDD
Readout kind: Ki

Ask | Identify measured Ki corresponding to CC1CSc2nc3nn[nH]c3c(=O)n21 (stereo unspecified)
Reply | > 10 µM
